# Tested on: AEC
# experiment.description: Antiproliferative activity against BAEC
# measurement.parameters: Bos taurus
pIC50: −log10 of the molar value.

compound | pIC50
CO[C@@H]1C(=O)CC[C@](O)(C=O)[C@H]1[C@@]1(C)O[C@@H]1CC=C(C)C [FUMAGALONE] | 7.28
CO[C@]12C(=O)CC[C@@]1(CO)[C@H]2/C(C)=C/CC=C(C)C | 5.75
CO[C@]12C(=O)CC[C@@]1(CO)C2[C@@]1(C)O[C@@H]1CC=C(C)C (stereo partly specified) [FUMARRANOL] | 7.47
CO[C@]12C(=O)CC[C@@]1(C=O)C2[C@@]1(C)O[C@@H]1CC=C(C)C (stereo partly specified) | 6.43
CO[C@@H]1[C@H](OC(=O)NC(=O)CCl)CC[C@]2(CO2)[C@H]1[C@@]1(C)O[C@@H]1CC=C(C)C [O-CHLOROACETYLCARBAMOYLFUMAGILLOL] | 10.43
CO[C@]12C(=O)CC[C@@]1(CO)C2C(C)CCC=C(C)C (stereo partly specified) | 5.40
